% of cells in gate V1-R at 100 nM values, listed per item
SYSTEM_TESTED: T1, B7-H3 on MDA-MB-468 cells (human, UniProt Q5ZPR3)
T1 construct: endogenous, on the cell surface
T1 sequence (cell surface antigen, looked up): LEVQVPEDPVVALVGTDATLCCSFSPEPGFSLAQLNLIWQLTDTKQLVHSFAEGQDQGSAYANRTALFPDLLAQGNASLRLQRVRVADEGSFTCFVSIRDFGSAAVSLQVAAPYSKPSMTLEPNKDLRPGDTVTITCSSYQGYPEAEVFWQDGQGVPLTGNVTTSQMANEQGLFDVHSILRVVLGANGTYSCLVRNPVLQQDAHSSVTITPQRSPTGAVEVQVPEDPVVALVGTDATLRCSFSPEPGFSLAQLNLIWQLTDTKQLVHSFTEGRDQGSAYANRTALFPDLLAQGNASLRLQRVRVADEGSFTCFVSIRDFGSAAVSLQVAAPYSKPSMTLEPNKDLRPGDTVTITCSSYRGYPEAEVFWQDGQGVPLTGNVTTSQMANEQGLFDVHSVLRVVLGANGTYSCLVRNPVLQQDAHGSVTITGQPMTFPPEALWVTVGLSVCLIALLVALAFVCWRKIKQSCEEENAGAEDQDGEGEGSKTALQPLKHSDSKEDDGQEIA
EXPERIMENT_NOTES: flow cytometry on MDA-MB-468 cells; blank V2-R 0.9%
Numeric only. Scale: %

BINDER | % of cells in gate V1-R at 100 nM / %
control Antibody M30-H1-L4 (antibody, human IgG1, kappa, V domains shown, Control anti-B7-H3 antibody) VH: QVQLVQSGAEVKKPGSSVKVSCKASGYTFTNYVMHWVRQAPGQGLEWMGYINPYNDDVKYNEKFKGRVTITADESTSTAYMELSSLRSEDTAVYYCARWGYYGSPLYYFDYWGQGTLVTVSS VL: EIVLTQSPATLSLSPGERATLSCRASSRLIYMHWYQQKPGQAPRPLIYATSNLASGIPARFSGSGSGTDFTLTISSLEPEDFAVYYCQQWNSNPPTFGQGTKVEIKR | 99.3

So what's the measured % of cells in gate V1-R at 100 nM for this one? Antibody V5 (antibody, human IgG1, kappa, V domains shown, Humanized from chimeric antibody M1; also called humanized antibody V5) VH: QVQLVQSGAEVKKPGASVKVSCKASGYTFTDYDINWVRQAPGQRLEWIGWIFPGDDTTKYNEKFKGRATLTADKSASTAYMELSSLRSEDTAVYYCARSPSFDYWGQGTLVTVSS VL: QIVLTQSPSSLSASVGDRVTITCSASSTIGFMYWYQQKPGKAPKRWIYDTSKLASGVPSRFSVSGSGTDYTLTISSLQPEDFATYYCHQRSSYPTFGQGTKVEIKR
99.7

// % of cells in gate V1-R at 100 nM lookup, key: Antibody V1 (antibody, human IgG1, kappa, V domains shown, Humanized from chimeric antibody M1; also called humanized antibody V1) VH: EVQLVQSGAEVKKSGESLKISCKASGYTFTDYDINWVRQMPGKGLEWMGWIFPGDDTTKYNEKFKGQVTISADKSTNTAYLQWSSLKASDTAMYYCARSPSFDYWGQGTLVTVSS VL: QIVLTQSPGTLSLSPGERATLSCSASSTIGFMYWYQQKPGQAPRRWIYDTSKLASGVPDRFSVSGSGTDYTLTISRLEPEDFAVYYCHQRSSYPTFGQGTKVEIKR
99.7

FYI, the data here is from patent US20250262316A1.
